- EXPERIMENT NOTES: Activation of Sprague-Dawley rat soluble guanylate cyclase after 10 mins
pEC50: −log10 of the molar value.

# COMPOUND, pEC50
rows = [
    ("O=[N+]([O-])OCC(CSSc1ccc(Br)cc1)O[N+](=O)[O-] (configuration not stated)", 4.40),
    ("Cc1ccc(SSCC(CO[N+](=O)[O-])O[N+](=O)[O-])cc1 (configuration not stated)", 3.77),
]

---

- Species: Rattus norvegicus
- EXPERIMENT NOTES: Activation of Sprague-Dawley rat soluble guanylate cyclase after 10 mins in presence of cysteine relative to GTN
ENDPOINT LABEL: Emax (%)

# COMPOUND, ENDPOINT LABEL, UNIT ABBREVIATION, OBS VALUE
rows = [
    ("O=[N+]([O-])OCC(CSSc1ccc(F)cc1)O[N+](=O)[O-] (stereo unspecified)", "Emax", "%", 192),
    ("O=[N+]([O-])OCC(CSSc1ccccc1)O[N+](=O)[O-] (stereo unspecified)", "Emax", "%", 201),
    ("O=[N+]([O-])OCC(CSSc1ccc(Cl)cc1)O[N+](=O)[O-] (stereo unspecified)", "Emax", "%", 195),
    ("Cc1ccc(SSCC(CO[N+](=O)[O-])O[N+](=O)[O-])cc1 (stereo unspecified)", "Emax", "%", 279),
    ("COc1ccc(SSCC(CO[N+](=O)[O-])O[N+](=O)[O-])cc1 (stereo unspecified)", "Emax", "%", 245),
    ("O=[N+]([O-])OCC(CSSc1ccc(Br)cc1)O[N+](=O)[O-] (stereo unspecified)", "Emax", "%", 218),
]

---

- EXPERIMENT NOTES: Activation of Sprague-Dawley rat soluble guanylate cyclase after 10 mins in presence of cysteine
pEC50: −log10 of the molar value.

# COMPOUND, pEC50
data = [
    ("O=[N+]([O-])OCC(CO[N+](=O)[O-])O[N+](=O)[O-] [NITROGLYCERIN]", 3.70),
]

Just for reference, ChEMBL document CHEMBL3217567 is where these values come from.
